Form field: IC50 (one value per entry).
MEASUREMENT DESCRIPTION: Cytotoxicity against human HCT116 cells
Format: functional, cell-based
ASSAY CONTEXT: HCT-116

COMPOUND STRUCTURE | CENSORING QUALIFIER | IC50 / µM
C[C@H]1[C@H](C)CC[C@]2(C)CC[C@]3(C)C(=CC[C@@H]4[C@@]5(C)CC[C@@H](O)[C@](C)(NC(=O)CCCC(=O)NO)[C@@H]5CC[C@]43C)[C@H]12 | > | 20
CC(=O)O[C@@H]1CC[C@]2(C)[C@H]3CC=C4[C@@H]5[C@@H](C)[C@H](C)CC[C@]5(C)CC[C@@]4(C)[C@]3(C)CC[C@H]2[C@@]1(C)N | = | 8.7
COC(=O)CCCCC(=O)N[C@]1(C)[C@@H]2CC[C@]3(C)[C@H](C(=O)C=C4[C@@H]5[C@@H](C)[C@H](C)CC[C@]5(C)CC[C@]43C)[C@@]2(C)CC[C@H]1OC(C)=O | = | 15.1

Where do these numbers come from? They come from ChEMBL document CHEMBL3351412.
